Data provenance is the ASAP Discovery antiviral challenge data (2025).

# thresholds on solubility kinetic define classes: range 1 (below 100 µM), range 2 (100 µM to below 300 µM), range 3 (300 µM or more)

COMPOUND | ASSIGNED CATEGORY
CNC(=O)[C@H](Nc1ccc2c(c1)CNC2)c1cc(Cl)cc(C2CC2)c1 (racemic) | range 3
Cn1ncc(-c2cc3c(N[C@H](c4ccc5c(c4)OCCO5)C(C)(C)C)ncnc3[nH]2)c1C#N (racemic) | range 1
CC(C)[C@H](Nc1ncnc2[nH]c(-c3ccc4cncn4c3)cc12)c1ccc2c(c1)S(=O)(=O)CCC2 (racemic) | range 1
CNC(=O)[C@H](Nc1cccc(-c2nn[nH]n2)c1)c1cc(Cl)cc2[nH]ncc12 (racemic) | range 3
CC(C)[C@H](Nc1ncnc2[nH]c(-c3cnn(C)c3C#N)cc12)c1ccc2c(c1)NC(=O)CO2 (racemic) | range 1
Cc1cc(OCc2ccccc2)ccc1NS(=O)(=O)c1ccc(Cl)cc1C(=O)O | range 3
O=C1Cc2c(cc(F)cc2C(=O)Nc2ccc3c(c2)CNC3)N1 | range 3
O=C(Nc1ccc2c(c1)CNC2)c1cccc2[nH]c(C(F)(F)F)cc12 | range 3
N#C[C@H](Nc1cccc(-c2nn[nH]n2)c1)c1cc(Cl)cc(NC(=O)OCc2ccccc2)c1 (racemic) | range 3
CNC(=O)Cn1cc(-c2cc3c(N[C@H](c4ccc5c(c4)OCCO5)C(C)C)ncnc3[nH]2)cn1 (racemic) | range 2
CC(C)[C@H](Nc1ncnc2[nH]ccc12)c1ccc2c(c1)S(=O)(=O)CCC2 (racemic) | range 3
CCCC[C@H](NC(=O)OC(C)(C)C)C(=O)N[C@H](C(=O)NCc1ccc(CN)cc1)c1ccc(OCc2ccccc2)cc1 (mixture of isomers) | range 2
C=CC[C@H](Nc1cccc(-c2nn[nH]n2)c1)c1cc(Cl)cc(NC(=O)OCc2ccccc2)c1 (racemic) | range 3
O=C(Nc1ccc2c(c1)CNC2)c1cc(Cl)cc2c1CCC2 | range 3
O=C(Nc1cc(Cl)cc(C(=O)Nc2n[nH]c3c2CNC3)c1)OCc1ccccc1 | range 1
O=C(Nc1ccc2c(c1)CNC2)c1cc(F)cc2c1CCC2 | range 2
CC(C)[C@H](Nc1ncnc2[nH]c(-c3cnn(C)c3)cc12)c1ccc2c(c1)S(=O)(=O)NCC2 (racemic) | range 2
CNC(=O)c1cc(Cl)ccc1NS(=O)(=O)c1ccc(Oc2ccccc2Cl)cc1 | range 1
